# Test system: Clone20 osteoblast Shn3 3'UTR firefly luciferase, 24 h
# MEASUREMENT DESCRIPTION: Shn3 3'UTR reporter inhibitors, dose response, cell-based, Clone20 osteoblasts, luminescence, dry powder, set 2 (AID 743417)
Results filed as inconclusive are left out.
// reported AC50 per item
ENDPOINT NAME: AC50

> print(dat)
                                    compound                                    target     result
 1    Cc1ccc(NC(=O)CSc2ccc3c(c2)OCCO3)c(O)c1  Clone20 osteoblast Shn3 3'UTR firefly luciferase, 24 h   0.343 µM
 2      Oc1ccc(-c2nc(-c3ccc(O)c(O)c3)cs2)cc1  Clone20 osteoblast Shn3 3'UTR firefly luciferase, 24 h    5.07 µM
 3  CC(C)C[C@@H](CO)N(Cc1ccccc1)S(=O)(=O)N(Cc1ccccc1)[C@@H](CO)CC(C)C  Clone20 osteoblast Shn3 3'UTR firefly luciferase, 24 h    11.4 µM
 4  CCCc1nnc(NC(=O)c2nc(S(=O)(=O)Cc3cccc(C)c3)ncc2Cl)s1  Clone20 osteoblast Shn3 3'UTR firefly luciferase, 24 h    2.55 µM
 5  Cc1nn(Cc2noc(C(=O)NC3CCC(C)CC3)n2)c(C)c1Br (stereo not given)  Clone20 osteoblast Shn3 3'UTR firefly luciferase, 24 h    3.28 µM
 6  CS(=O)(=O)c1ccc(C(=O)OCC(=O)N2CCN(CCC3CCCCC3)CC2)cc1[N+](=O)[O-]  Clone20 osteoblast Shn3 3'UTR firefly luciferase, 24 h    2.41 µM
 7  CC1=CC2/C=C(\C)CCC(O)C(O)/C=C/C(=O)C23C(=O)NC(CC(C)C)C3C1C (stereo not given)  Clone20 osteoblast Shn3 3'UTR firefly luciferase, 24 h    5.29 µM
 8  O=S1(=O)C=C(Sc2nc3cc(Cl)ccc3o2)c2ccccc21  Clone20 osteoblast Shn3 3'UTR firefly luciferase, 24 h  < 0.26 µM
 9  CC(=O)OCCNc1cc(Sc2nc3ccccc3[nH]2)c2nonc2c1[N+](=O)[O-]  Clone20 osteoblast Shn3 3'UTR firefly luciferase, 24 h    1.86 µM
10  Cc1cc(C)n(-c2nc(Nc3ccccc3C(F)(F)F)nc(-n3nc(C)cc3C)n2)n1  Clone20 osteoblast Shn3 3'UTR firefly luciferase, 24 h    5.49 µM
11  Cn1c(=O)c2c(nc(NCc3ccco3)n2C/C=C/c2ccccc2)n(C)c1=O  Clone20 osteoblast Shn3 3'UTR firefly luciferase, 24 h    1.08 µM
12  O=C(NNC(=O)c1cccnc1SCc1cccc([N+](=O)[O-])c1)c1ccccn1  Clone20 osteoblast Shn3 3'UTR firefly luciferase, 24 h     1.9 µM
13  COc1ccccc1NC(=O)Cn1cc(C(=O)C2CC2)c2ccccc21  Clone20 osteoblast Shn3 3'UTR firefly luciferase, 24 h    4.76 µM
14  O=C(Nc1ccc(N2CCOCC2)cc1)c1ccc(Cl)c(S(=O)(=O)N2CCCC2)c1  Clone20 osteoblast Shn3 3'UTR firefly luciferase, 24 h    2.17 µM
15  COc1cc(NC(=O)NCc2ccco2)ccc1-c1ccc(NC(=O)NCc2ccco2)cc1OC  Clone20 osteoblast Shn3 3'UTR firefly luciferase, 24 h    3.19 µM
16       c1ccc(CNc2ncnc3scc(-c4cccs4)c23)nc1  Clone20 osteoblast Shn3 3'UTR firefly luciferase, 24 h    3.59 µM
17  CC(C)(C)c1cc(C(c2cccnc2)N2CCN(CCO)CC2)cc(C(C)(C)C)c1O (stereo not given)  Clone20 osteoblast Shn3 3'UTR firefly luciferase, 24 h     1.7 µM
18  COc1ccc(N2CCN(C(=O)CN3CCN(c4nc(-c5ccc(F)cc5)cs4)CC3)CC2)cc1  Clone20 osteoblast Shn3 3'UTR firefly luciferase, 24 h    1.81 µM
19  Cc1ccc(F)cc1CNC(=O)c1cc(COc2ccc3ncccc3c2)on1  Clone20 osteoblast Shn3 3'UTR firefly luciferase, 24 h    4.88 µM
20  Cc1cccc(C)c1NC(=O)CN(C)C(=O)c1cc(S(=O)(=O)N(C)C)ccc1N1CCCC1  Clone20 osteoblast Shn3 3'UTR firefly luciferase, 24 h    27.1 µM
